# measured-on: T1, SARS-CoV-2 Receptor Binding Domain (RBD) protein (SARS-CoV-2, UniProt P0DTC2 319-541)
# T1 construct: also called Sars-Cov-2 (COV2)
# assay-remarks: SPR (Carterra LSA); scFv captured by anti-V5, RBD as analyte

binder	kon
COVID19_P02_H04 (scFv, V domains shown) VH: QVQLVQSGAEVKKPGSSVKVSCKASGYTFSSFHINWVRQAPGQGLEWMGGITPIFGIANYAQKFQGRVTITADESTSTAYMELSSLRSEDTAVYYCALETVMGGMDVWGQGTLVTVSS VL: SSYVLTQPPSVSVAPGKTARITCGGNNIGSKSVHWYQQKPGQAPVLVIYYDSDRPSGIPERFSGSNSGNTATLTISRVEAGDEADYYCQSWDSSGDYVFGGGTKLTVLA	245000 M⁻¹ s⁻¹
COVID19_P14_F05 (scFv, V domains shown) VH: QVQLVQSGAEVKKPGSSVKVSCKASGNTFSMFAINWVRQAPGQGLEWVGVINPIGSTTTYAQKFQGRVTITADESTSTAYMELSSLRSEDTAVYYCARDTVMGGMDVWGQGTLVTVSS VL: SSYVLTQPPSVSVAPGKTARITCGGNNIGSKSVHWYQQKPGQAPVLVIYYDSDRPSGIPERFSGSNSGNTATLTISRVEAGDEADYYCQVWVSSSDYVFGGGTKLTVLA	69900 M⁻¹ s⁻¹
